Recorded values, source PubChem BioAssay AID488841.

method: yeast NALP1 reporter signal suppression – S. cerevisiae, luminescence, single concentration, NALP1 inhibitor project, confirmation (AID 488841)
experimental-parameters: S. cerevisiae NALP1/ASC/Caspase-1 reporter, beta-gal luminescence; at 10 µM; hits give high values
The campaign covered roughly 1,400 compounds. About 380 (27%) were called active. This is one part of the list.
Definition: the class of an entry is the range in lower (below 30%), middle (30% to below 50%), upper (50% or more) that contains its inhibition.

CCCc1nc2ccc(NC(=O)c3ccco3)cc2c(=O)n1Cc1ccccc1Cl    lower
CCCCC(=O)Nc1ccc(C(=O)NNC(=S)NC(=O)c2ccco2)cc1    middle
CC(C)Oc1ccc(OCCNC2CCCC2)cc1    middle
Cc1cccnc1NC(=O)c1ccccc1NC(=O)C(C)(C)C    middle
CCOc1ccccc1C(=O)OCC(=O)Nc1ccc(N2CCCCC2)cc1    middle
O=C(Nc1ccc(Cl)c(Cl)c1)Oc1ccc(NC(=O)c2ccco2)cc1    upper
O=C(Nc1ccc(-c2cn3ccccc3n2)cc1)c1ccco1    upper
O=C(Nc1ccon1)c1cc2ccccc2oc1=O    middle
Cc1cs/c(=N\N=C\c2ccccc2)n1Cc1ccco1    middle
CCN1/C(=C/c2ccc3cc(C)ccc3[n+]2CC)Sc2ccccc21    upper
CCOC(=O)C[N+](CC)(CC)CC#Cc1ccccc1    lower
O=c1[nH][nH]c(-c2ccccc2O)c1C(C[N+](=O)[O-])c1ccc(Cl)cc1Cl (stereo not given)    middle
OC(COCc1ccc2c(c1)OCO2)CN1CCN(Cc2ccccc2)CC1 (stereo not given)    middle
CCN1/C(=C/c2ccc3ccc(C)cc3[n+]2CC)Sc2ccccc21    lower
Oc1c(Br)cc(Br)cc1C=Nc1cccnc1    middle
CCOc1ccccc1C(=O)Nc1cnn(Cc2ccc(F)cc2)c1    upper
CC1=C(C(=O)Nc2ccc(Cl)cc2)C(c2ccco2)NC(=O)N1 (stereo not given)    lower
CCCCNCCOCCOc1ccc(Cl)cc1Br    middle
CC[n+]1c(/C=C2\Sc3ccccc3N2C)ccc2cccc(C)c21    upper
Cc1cc(C)c(NC(=O)/C(=C/c2ccccc2)c2ccccc2)c(C)c1    middle
CSc1ccc2c(c1)N(CCC1CCCCN1C)c1ccccc1S2 (stereo not given)    upper
CCOC(=O)C(=O)NNc1ccc(Cl)cc1    middle
COC(=O)c1cc(=O)n(-c2c(Cl)cc(C(F)(F)F)cc2Cl)[nH]1    lower
CCN(c1ccccc1)S(=O)(=O)c1cc(NC(=O)Nc2ccccc2C#N)ccc1Cl    lower
CCN1/C(=C\c2ccc3ccccc3[n+]2CC)Sc2cc(C)ccc21    upper
C#CCN(C)CCCOc1ccc(Cl)cc1Cl    upper
COc1ccc(N2CCN(CCNC(=O)Nc3ccc(Cl)cc3)CC2)cc1    lower
CCOC(=O)c1c(O)c2cc(Cl)ccc2n(CC)c1=O    middle
Cc1cc(Br)ccc1OCCn1ccnc1    middle
CS(=O)(=O)N1N=C(c2ccco2)CC1c1ccc(Cl)cc1 (stereo not given)    lower
CC(C)NC(=O)CSc1nc(-c2ccccc2)cs1    upper
Cc1ccc2oc(-c3ccc(NC(=O)c4cccnc4)cc3)nc2c1    middle
COc1cccc(F)c1C(C[N+](=O)[O-])c1c(N)n(C)c(=O)n(C)c1=O (stereo not given)    upper
CCC(C)c1ccc(OCCn2ccnc2)cc1 (stereo not given)    upper
Cc1ccc(C(C[N+](=O)[O-])c2c(N)n(C)c(=O)n(C)c2=O)cc1 (stereo not given)    upper
CC(=O)c1ccc(S(=O)(=O)N2CCCC2)cc1    lower
CC(C)C(C)NC(=O)COc1ccc(S(=O)(=O)N2CCOCC2)cc1[N+](=O)[O-] (stereo not given)    lower
